- target.or.system: ZIKV RdRp (Zika virus, UniProt A0A024B7W1)
- Construct: we expressed and purified ZIKV RdRp domain
- Sequence (A0A024B7W1 2793-3423): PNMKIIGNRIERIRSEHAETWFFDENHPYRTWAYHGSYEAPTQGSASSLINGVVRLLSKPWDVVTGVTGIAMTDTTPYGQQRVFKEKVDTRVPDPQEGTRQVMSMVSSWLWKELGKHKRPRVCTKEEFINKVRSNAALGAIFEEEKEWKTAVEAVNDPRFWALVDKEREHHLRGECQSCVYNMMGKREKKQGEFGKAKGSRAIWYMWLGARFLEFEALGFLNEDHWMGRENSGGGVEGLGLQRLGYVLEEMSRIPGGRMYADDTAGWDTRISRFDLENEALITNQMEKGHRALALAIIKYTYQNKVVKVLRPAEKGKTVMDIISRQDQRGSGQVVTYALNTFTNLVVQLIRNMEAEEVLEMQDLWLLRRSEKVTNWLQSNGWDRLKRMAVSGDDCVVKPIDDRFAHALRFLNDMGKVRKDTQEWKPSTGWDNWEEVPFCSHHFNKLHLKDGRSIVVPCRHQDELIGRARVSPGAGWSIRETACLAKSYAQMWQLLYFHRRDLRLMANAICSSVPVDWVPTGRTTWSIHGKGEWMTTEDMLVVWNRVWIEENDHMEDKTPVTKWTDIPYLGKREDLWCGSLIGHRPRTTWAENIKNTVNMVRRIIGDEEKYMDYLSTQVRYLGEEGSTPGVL
- assay.name: In vitro ZIKV RdRp activity assay (Syto9 fluorescence)
- protocol.conditions: purified ZIKV RdRp domain, poly-U/ATP, 30°C 60 min; read-out: EC50, inhibition of ZIKV RdRp activity
endpoint.name: EC50

Problem: Looking for the measured EC50 of `CCc1c(C2CCCCC2)nc(SCC(=O)Nc2cc(F)cc(F)c2)[nH]c1=O` , can you help?
Solution: 11.4 µM
